Reference source: patent US20120282637A1

Target: T1, RAGE-Fc (human, UniProt Q15109 23-344, limits assumed)
T1 construct: also called hRAGE; not shown: Fc part, detected with anti-hIgG Fc-specific conjugate
T1 sequence (Q15109 23-344 limits assumed): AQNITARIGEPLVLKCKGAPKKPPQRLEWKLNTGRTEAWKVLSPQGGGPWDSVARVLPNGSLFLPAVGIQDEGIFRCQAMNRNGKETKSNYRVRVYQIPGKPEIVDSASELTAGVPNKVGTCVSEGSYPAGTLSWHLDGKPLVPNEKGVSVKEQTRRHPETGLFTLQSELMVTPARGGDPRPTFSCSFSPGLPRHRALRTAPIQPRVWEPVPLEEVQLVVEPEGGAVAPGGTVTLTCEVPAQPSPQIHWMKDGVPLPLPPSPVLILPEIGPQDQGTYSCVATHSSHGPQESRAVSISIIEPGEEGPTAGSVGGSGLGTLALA
Assay: competition ELISA, hRAGE-S100B interaction
Answer each item with its documented IC50.
Answers are plain numbers, in µg/mL.

Binder: 158 RAGE-1 (antibody, V domains shown, Anti-RAGE monoclonal antibody from a hybridoma, captured by anti-mouse Fc; also called LP08105) VH: QIQLVQSGPELKKPGETVKISCKASGYTFTDYSMHWVKQAPGKGLKWMGWINTETGEPTYADDFKGRFAFSLETSASTAYLLINNLKTEDTATYFCARDYLYYYAMDYWGQGTSVTVSS VL: DVVLTQTPLSLPVNIGDQASISCKSTKSLLNSDGFTYLDWYLQKPGQSPQLLIYLVSNRFSGVPDRFSGSGSGTDFTLKISRVEAEDLGVYYCFQSNYLPLTFGGGTKVEIK
Endpoint: IC50
Unit tag: µg/mL
Obs value: 0.109
//
Binder: 240 RAGE-1 (antibody, V domains shown, Anti-RAGE monoclonal antibody from a hybridoma, captured by anti-mouse Fc; also called LP08108) VH: QIQLVQSGPELKKPGETVKISCKASGYTFTDYSMHWVKQAPGKGLKWMGWINTETGEPTYADDFKGRFAFSLETSASTAYLQINNLKNEDTATYFCARDYLYYYAMDYWGQGTSVTVSS VL: DVVLTQTPLSLPVSIGDQASISCKSTKSLLNSDGFTYLDWYLQKPGQSPQLLIYLVSNRFSGVPDSFSGSGSGTDFTLKISRVEAEDLGVYYCFQSNYFPLTFGGGTTLEIK
Endpoint: IC50
Unit tag: µg/mL
Obs value: 0.123

Now, please, on to the next binder.
IC50 reading for 253 RAGE-1 (antibody, V domains shown, Anti-RAGE monoclonal antibody from a hybridoma, captured by anti-mouse Fc; also called LP08127) VH: QVQLQQSGPELVKPGASVRISCKASGYTFTDYYIHWVKQRPGQGLEWIGWIYPGNVITKYNEKFKGKATLTADKSSSTAYMQLSSLTSEDSAVYFCARYDYDYAMDYWGQGTSVTVSS VL: DIVMSQSPSSLAVSVGEKVTMSCKSSQTLLYSSNQKNYLAWYQQKPGQSLKLLIYWASTRESGVPDRFAGSGSGTDFTLTISSVKAEDLAVYYCQQYFGYPYTFGGGTKLEIK : 0.108
